# Test system: johnsongrass
# assayComment: Test C preemergence
# Type: in vivo, Sorghum halepense
# experimentalSetup: 62 g ai/ha, preemergence; scale 0 (no effect) to 100 (complete control)
Johnsongrass plant response rating listing for selected compounds.

chemicalString	targetDesc	Johnsongrass plant response rating
Fc1cnc(Oc2cccc(C(F)F)c2-n2cc(Br)cn2)nc1	johnsongrass	20
CCCOc1cnn(-c2c(C#N)cccc2Oc2ncc(Cl)cn2)c1	johnsongrass	70
FCc1cccc(Oc2ncc(F)cn2)c1-n1cc(C(F)(F)F)cn1	johnsongrass	85
N#Cc1cccc(Oc2ncc(F)cn2)c1-n1cc(I)cn1	johnsongrass	60
CCOc1cnn(-c2c(C#N)cccc2Oc2ncc(Cl)cn2)c1	johnsongrass	70
FCc1cn(-c2c(F)cccc2Oc2ncc(Cl)cn2)nn1	johnsongrass	40
N#Cc1cccc(Oc2ncc(Br)cn2)c1-n1cc(I)cn1	johnsongrass	40
